Values from PubChem BioAssay (NCI)

# Test system: HOP-62 NSCLC
# Assay: NCI-60 one-dose screen, 48 h (100 = growth as untreated, 0 = no growth, -100 = all killed)
# Applied conditions: 10 µM unless noted
This is part of a sample that, as a whole, favours compounds with a hit. Of some 83,000 tested, about 20% had one in any assay.
Observable: growth (%)
Please give a number only; it is taken to be in %.

The recorded growth with HOP-62 NSCLC for CCC1=C(c2ccc(OC)cc2)C(C)(C)Oc2cc(O)c(CN3CCCC3)cc21 was 71.4

The recorded growth with HOP-62 NSCLC for CCC1(c2ccccc2)Oc2ccccc2-n2c(C#N)c3ccccc3c2C1=O (stereo not given) was 93.6

The recorded growth with HOP-62 NSCLC for COc1ccc(-c2nn(-c3cccc(Cl)c3)cc2C2CC(c3ccccc3)=NN2C(C)=O)cc1 (stereo not given) was -18.1

The recorded growth with HOP-62 NSCLC for CCN1CCN(c2cc(-c3cn[nH]c3-c3cc(C)cc(OC)c3)nc(-c3cccnc3)n2)CC1 was 101

The recorded growth with HOP-62 NSCLC for CN(C)c1cccc2c(S(=O)(=O)N[C@H]3CC[C@H]4[C@@H]5CCc6cc(O)ccc6[C@H]5CC[C@]34C)cccc12 was 66.8

The recorded growth with HOP-62 NSCLC for CC[N+](C)(CC)CCCC(C)Nc1ccnc2cc(Cl)ccc12 (stereo not given) was 113

The recorded growth with HOP-62 NSCLC for CCOC(=O)c1c(C)c(C(=O)OCC)n(C)c1C was 74.4

The recorded growth with HOP-62 NSCLC for O=C(/C(=C/c1ccc([N+](=O)[O-])cc1)c1ccccc1)c1ccccc1 was 88.9

The recorded growth with HOP-62 NSCLC for COc1ccc(/C(=C2\O[C@@H]([C@H](O)CO)[C@H]3OC(C)(C)O[C@@H]23)c2cc(OC)c(OC)c(OC)c2)cc1O was 88.4

The recorded growth with HOP-62 NSCLC for COc1ccc(/C=N\Nc2ccc([N+](=O)[O-])cn2)cc1OC was 25.4

The recorded growth with HOP-62 NSCLC for OCc1nnn(-c2ccccc2)c1CO was 110

The recorded growth with HOP-62 NSCLC for COc1cc2c(-c3nc4cc(Cl)c(F)cc4s3)cc(=O)oc2c(C)c1OC was -65.7

The recorded growth with HOP-62 NSCLC for COc1ccc(-c2noc(N)c2-c2cc(OC)c3c(c2)OCO3)cc1 was 34.6

The recorded growth with HOP-62 NSCLC for O=C(Nc1ccc(Cl)cc1)c1cc2c(cc1O)[nH]c1ccccc12 was -2.15

The recorded growth with HOP-62 NSCLC for CCC(=O)Nc1ccccc1C#C/C=C\C#Cc1ccccc1C(F)(F)F was 54.5

The recorded growth with HOP-62 NSCLC for Cc1cc(NC(=O)c2ccc(N)cc2)ccc1N=Nc1ccc2c(O)c(N=Nc3ccc(Cl)c(S(=O)(=O)O)c3)c(S(=O)(=O)O)cc2c1 was 64.2

The recorded growth with HOP-62 NSCLC for O=C(CCc1nnc(Cn2cncn2)o1)c1nc2ccccc2[nH]1 was 103

The recorded growth with HOP-62 NSCLC for COC(=O)CCC1=C(C)/C(=C/c2[nH]c(-c3ccc[nH]3)cc2OC)N=C1C was 3.57

The recorded growth with HOP-62 NSCLC for COc1ccc(-c2csc(NC(=O)c3cc(OC)c(OC)c(OC)c3)n2)cc1 was 91.2

The recorded growth with HOP-62 NSCLC for Clc1ccc(-n2cnc3c(Cl)ncnc32)cc1Cl was 83.6

The recorded growth with HOP-62 NSCLC for COc1ccc2c(c1)nc(N)c1c3cc(OC)c(OC)cc3cn21 was 76.9

The recorded growth with HOP-62 NSCLC for CC(=O)O[C@H]1C(=O)[C@@]2(C)C([C@H](OC(=O)c3ccccc3)[C@]3(O)C[C@H](OC(=O)[C@H](O)[C@@H](NC(=O)c4ccccc4)c4ccccc4)C(C)=C1C3(C)C)[C@]1(OC(C)=O)CO[C@@H]1C[C@@H]2O (stereo not given in full) was 24.6

The recorded growth with HOP-62 NSCLC for NC(N)=NN=c1c(=O)c2ccccc2c1=O was 32.3

The recorded growth with HOP-62 NSCLC for C/C(=N/N=C(N)N)c1ccc(N)cc1 was 91.5

The recorded growth with HOP-62 NSCLC for CSc1nnc(C2=CC(=O)c3ccccc3C2=O)n1-c1ccccc1 was 100
